# kon per record follows
Molecular target: human IL-6 (human, UniProt P05231 30-212)
Sequence (P05231 30-212 limits assumed): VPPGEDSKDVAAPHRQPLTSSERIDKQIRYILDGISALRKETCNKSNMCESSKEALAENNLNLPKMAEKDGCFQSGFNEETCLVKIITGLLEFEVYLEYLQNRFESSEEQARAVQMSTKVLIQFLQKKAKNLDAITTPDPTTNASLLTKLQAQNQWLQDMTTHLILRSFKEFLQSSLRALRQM
Test: SPR Biacore, supernatant, Protein A capture, 37 C
Description: Those four positions were selected based on their tolerance for mutations as observed in bacterial and mammalian screens. […] These cultures were centrifuged and supernatants containing secreted antibodies were harvested and diluted in HBS-EP+ running buffer (1:20 ratio). Antibodies were captured on a Protein A chip (GE) by injecting 1:20 cell supernatant dilutions at 10 μL/min for 60 seconds. […]
Write down the value, and be sure its unit follows.

Use the examples below as a reference point.
{"binder": "Anti-IL-6 antibody, heavy chain S35H, G66D, Q99H / light chain WT (antibody, IgG1, V domains shown, IgG1; variable domains only) VH: EVQLVESGGGLVQPGGSLRLSCAASGFTFSPFAMHWVRQAPGKGLEWVAKISPGGSWTYYSDTVTDRFTFSLDTSKSTAYLQMNSLRAEDTAVYYCARHLWGYYALDIWGQGTLVTVSS VL: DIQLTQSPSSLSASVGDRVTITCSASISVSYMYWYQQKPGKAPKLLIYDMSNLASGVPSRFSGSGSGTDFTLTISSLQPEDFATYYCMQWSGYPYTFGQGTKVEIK", "recorded_value": "802000 M⁻¹ s⁻¹"}
{"binder": "Anti-IL-6 antibody, heavy chain S35H, G66D, L100D / light chain M32L, M50D, N52S, M88Q (antibody, IgG1, V domains shown, IgG1; variable domains only; VL is variant III) VH: EVQLVESGGGLVQPGGSLRLSCAASGFTFSPFAMHWVRQAPGKGLEWVAKISPGGSWTYYSDTVTDRFTFSLDTSKSTAYLQMNSLRAEDTAVYYCARQDWGYYALDIWGQGTLVTVSS VL: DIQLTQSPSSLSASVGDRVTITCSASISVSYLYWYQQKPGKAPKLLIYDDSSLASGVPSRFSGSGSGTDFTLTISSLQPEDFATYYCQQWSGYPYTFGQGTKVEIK", "recorded_value": "5.77e+06 M⁻¹ s⁻¹"}

Next item in the queue.
Problem: Look up kon of Anti-IL-6 antibody, heavy chain S35H, G66D, Q99Y / light chain WT (antibody, IgG1, V domains shown, IgG1; variable domains only) VH: EVQLVESGGGLVQPGGSLRLSCAASGFTFSPFAMHWVRQAPGKGLEWVAKISPGGSWTYYSDTVTDRFTFSLDTSKSTAYLQMNSLRAEDTAVYYCARYLWGYYALDIWGQGTLVTVSS VL: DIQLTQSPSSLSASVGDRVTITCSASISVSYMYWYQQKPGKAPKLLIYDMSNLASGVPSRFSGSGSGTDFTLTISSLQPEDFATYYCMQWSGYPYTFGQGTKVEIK and report it.
Result: 2.6e+06 M⁻¹ s⁻¹
